target: T1, anti-CD28 scFv (disulfide); assay: competition ELISA: peptide titrated (0-100 µM) with 0.3 nM anti-CD28 scFv (disulfide), binding to plate-bound CD28
T1 construct: also called Anti-CD28 scFv (VH - linker 1 - VL) Disulfide mutation: G44C, G235C
T1 sequence (scFv, as listed by the source): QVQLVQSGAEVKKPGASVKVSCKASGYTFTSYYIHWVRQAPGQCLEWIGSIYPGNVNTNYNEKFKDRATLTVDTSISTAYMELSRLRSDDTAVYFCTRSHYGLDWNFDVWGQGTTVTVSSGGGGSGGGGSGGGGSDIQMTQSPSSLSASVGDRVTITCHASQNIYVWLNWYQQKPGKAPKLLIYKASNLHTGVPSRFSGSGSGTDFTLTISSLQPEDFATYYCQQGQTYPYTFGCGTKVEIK
measured endpoint: pIC50
// pIC50 is dimensionless: -log10 of concentration (M)

Worked examples follow.
In [3]: df
Out[3]:
                                     binder  value_observed
0  YCAGHAWQYIAKCL (Alanine scan variant of Peptide-87 (N11A)) [Peptide-114]            5.15
1              SCAAGAAYAWPYCL [Peptide-101]            4.44

Which pIC50 reading was recorded for the binder ACAAGASYAWPYCL [Peptide-99] ? 4.17
